Read-out: ABC Transporter (ABCB1), ABCB1 (gene 5243)
Experiment: LTEA_HepaRG_ABCB1: Life Technologies and Expression Analysis (LTEA) Assay for ABC Transporter (ABCB1) using HepaRG (AID 2283460)
Settings: mRNA level, 48 h; actives raise or lower the signal
The source made the active and inactive calls. How the source made its calls: active means hit-call score of the fitted dose curve at least 0.9, where 1 is the maximum; inactive means score below 0.9.
Measurement name: AC50

- Compound: "CCN(Cc1c(F)cccc1Cl)c1c([N+](=O)[O-])cc(C(F)(F)F)cc1[N+](=O)[O-]"
  AC50: "inactive"
- Compound: "CC(=O)[C@H]1CC[C@H]2[C@@H]3CCC4=CC(=O)CC[C@]4(C)[C@H]3CC[C@]12C"
  AC50: "79.3 µM (active)"
- Compound: "CCCN(CCC)c1c([N+](=O)[O-])cc(C(F)(F)F)c(N)c1[N+](=O)[O-]"
  AC50: "18 µM (active)"
- Compound: "CCCCC(CC)COC(=O)c1ccccc1C(=O)O (stereo unspecified)"
  AC50: "74.9 µM (active)"
- Compound: "COC(=O)c1ccc(I)cc1S(=O)(=O)NC(=O)Nc1nc(C)nc(OC)n1"
  AC50: "inactive"
- Compound: "CCNc1nc(N)nc(Cl)n1"
  AC50: "inactive"
- Compound: "CCOC(=O)COc1cc(-n2ncc(C(F)(F)F)c(C)c2=O)c(F)cc1Cl"
  AC50: "inactive"
- Compound: "CCCCOC(=O)[C@@H](C)Oc1ccc(Oc2ccc(C(F)(F)F)cn2)cc1"
  AC50: "inactive"
- Compound: "O=C(O)c1ccccc1"
  AC50: "inactive"
- Compound: "c1ccc2[nH]c(-c3cscn3)nc2c1"
  AC50: "inactive"

Field: next compound
// query Need AC50, item "O=C(c1ccc(O)cc1O)c1ccc(O)cc1O"
// result inactive

###

Read-out: Cytochrome P450 4A22 (Homo sapiens)
Assay: LTEA_HepaRG_CYP4A22: Life Technologies and Expression Analysis (LTEA) Assay for Cytochrome P450 4A22 (CYP4A22) using HepaRG (AID 2283495)
Settings: mRNA level, 48 h; actives raise or lower the signal
Calls of active or inactive are those of the source. Rule for the calls: active = hit-call score of the fitted dose curve at least 0.9, where 1 is the maximum; inactive = score below 0.9.
Your answer must be one of the following: TRUE (active), FALSE (inactive)

// query What was the test verdict on "CCCCCOC(=O)COc1cc(N2C(=O)C3=C(CCCC3)C2=O)c(F)cc1Cl" ?
// result FALSE

// query What was the test verdict on "S=C([S-])NCCNC(=S)[S-].[Mn+2]" ?
// result TRUE

// query What was the test verdict on CCCCC(CC)COC(=O)c1ccccc1C(=O)O (centres undefined) ?
// result FALSE

// query What was the test verdict on "c1ccc(Nc2ccccc2)cc1" ?
// result FALSE

// query What was the test verdict on "CSC(=O)c1cccc2nnsc12" ?
// result FALSE

// query What was the test verdict on "CCN(CC)C(=O)c1cccc(C)c1" ?
// result FALSE

// query What was the test verdict on C[C@]12CC[C@@H]3c4ccc(O)cc4C[C@@H](CCCCCCCCCS(=O)CCCC(F)(F)C(F)(F)F)[C@H]3[C@@H]1CC[C@@H]2O (some centres undefined) ?
// result FALSE

// query What was the test verdict on "CCOC(=O)NCCOc1ccc(Oc2ccccc2)cc1" ?
// result TRUE

// query What was the test verdict on "COC(=O)c1ccccc1C(=O)O" ?
// result FALSE

// query What was the test verdict on "CCNc1nc(N)nc(Cl)n1" ?
// result FALSE

// query What was the test verdict on "CC(C)CCCCCCc1ccc(O)cc1" ?
// result FALSE

// query What was the test verdict on "N#CSCSc1nc2ccccc2s1" ?
// result TRUE

// query What was the test verdict on CC1(C)C(C=C(Cl)Cl)C1C(=O)OCc1cccc(Oc2ccccc2)c1 (centres undefined) ?
// result FALSE

// query What was the test verdict on "CN(C)C(=O)Nc1ccc(Cl)c(Cl)c1" ?
// result FALSE
